# Target Under Test: L-lactate dehydrogenase A chain (Homo sapiens, UniProt P00338)
# Experiment Notes: Inhibition of recombinant human LDHA using sodium pyruvate as substrate preincubated for 5 mins followed by diaphorase/resazurin addition and measured after 20 mins by fluorescence based assay
Readout Kind: log10(IC50) (log10 of the value in µM)
Please note: log10 values; quantity IC50; unit µM.

Q: Give the value of log10(IC50) reported for the following: NS(=O)(=O)c1ccc(Cc2c(-c3cccc(C#Cc4ccc(C5CC5)s4)c3)nn(-c3nc(C(=O)O)cs3)c2CC2CC2)cc1F
Result: -0.70

Q: Give the reported log10(IC50) for this molecule. NS(=O)(=O)c1ccc(Cc2c(-c3cccc(-c4ccccc4)c3)nn(-c3nc(C(=O)O)cs3)c2CC2CC2(F)F)cc1 (stereo not given)
Result: -1.60

Q: Output measured log10(IC50) for this item: NS(=O)(=O)c1ccc(Cc2c(-c3ccc(F)c(/C=C/C4CCCC4)c3)nn(-c3nc(C(=O)O)cs3)c2CC2CC2)cc1F
Result: -1.13

Q: Dear colleague, please send me the reported log10(IC50) for N#CC#Cc1cc(-c2nn(-c3nc(C(=O)O)cs3)c(CC3CC3)c2Cc2ccc(S(N)(=O)=O)c(F)c2)ccc1F when you can.
Result: -1.82

Q: Using known records, supply log10(IC50) for Cc1cnc(C#Cc2cc(-c3nn(-c4nc(C(=O)O)cs4)c(CC4CC4)c3Cc3ccc(S(N)(=O)=O)c(F)c3)ccc2F)s1
Result: -1.28

Q: In one line, give reported log10(IC50) of the entry Cn1cc(C#Cc2cc(-c3nn(-c4nc(C(=O)O)cs4)c(CC4CC4)c3Cc3ccc(S(N)(=O)=O)c(F)c3)ccc2F)cn1 .
Result: -2.05

Q: Quick one: give measured log10(IC50) for Cc1ccc(C#Cc2cccc(-c3nn(-c4nc(C(=O)O)cs4)c(CCC4CC4)c3Cc3ccc(S(N)(=O)=O)c(F)c3)c2)o1
Result: -1.28

Q: Return log10(IC50) (reported value) for this molecule: NS(=O)(=O)c1ccc(Cc2c(-c3ccc(F)c(-c4ccccc4)c3)nn(-c3nc(C(=O)O)cs3)c2CC2CC2)cc1F
Result: -1.64

Q: Specify measured log10(IC50) for NS(=O)(=O)c1ccc(Cc2c(-c3cccc(-c4ccccc4)c3)nn(-c3nc(C(=O)O)cs3)c2CCC2CC2)cc1 .
Result: -1.44

Q: Dear colleague, please send me the reported log10(IC50) for C/C=C/c1cc(-c2nn(-c3nc(C(=O)O)cs3)c(CC3CC3)c2Cc2ccc(S(N)(=O)=O)c(F)c2)ccc1F when you can.
Result: -1.96

Q: Give reported log10(IC50) value for C#Cc1cc(-c2nn(-c3nc(C(=O)O)cs3)c(CC3CC3)c2Cc2ccc(S(N)(=O)=O)c(F)c2)ccc1F
Result: -2.05

Q: Kindly indicate its recorded log10(IC50). Item: CCCC#Cc1cc(-c2nn(-c3nc(C(=O)O)cs3)c(CC3CC3)c2Cc2ccc(S(N)(=O)=O)c(F)c2)ccc1F
Result: -1.62

Q: Supply reported log10(IC50) belonging to this molecule: CC(C)(C)/C=C/c1cc(-c2nn(-c3nc(C(=O)O)cs3)c(CC3CC3)c2Cc2ccc(S(N)(=O)=O)c(F)c2)ccc1F
Result: -1.23

Q: Supply reported log10(IC50) belonging to this molecule: Cc1cc(C#Cc2cccc(-c3nn(-c4nc(C(=O)O)cs4)c(CC4CC4)c3Cc3ccc(S(N)(=O)=O)c(F)c3)c2)c(C)s1
Result: -0.63

Q: Tell me measured log10(IC50) for Cc1ccc(C#Cc2cccc(-c3nn(-c4nc(C(=O)O)cs4)c(CC4CC4)c3Cc3ccc(S(N)(=O)=O)c(F)c3)c2)o1 please.
Result: -1.44
